# protocolDescription: DSSTox (CPDBAS) Carcinogenic Potency Database Summary MultiCellCall Results
# conditionDetails: animal carcinogenicity bioassays, multi-cell call summary
Active and inactive are the calls of the source.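 How the source made its calls: active means tumour findings in long-term animal cancer tests in more than one sex, species or organ; inactive means no tumour finding and more than one negative test.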
Select the matching outcome among 1.0 for active, 0.0 for inactive

> print(dat)
                                   compound  label
1                             O=NN1CCCCCCC1    1.0
2  Cc1cccc(OCC(O)CNC(C)(C)C)c1C (stereo not drawn)    0.0

// switching to the query compound
How did this test come out for CN(N=O)C(=O)NCCC[C@H](N)C(=O)O ?
1.0

----------
# protocolDescription: DSSTox (CPDBAS) Carcinogenic Potency Database Summary MultiCellCall Results
# conditionDetails: animal carcinogenicity bioassays, multi-cell call summary
Active and inactive are the calls of the source.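 How the source made its calls: active means tumour findings in long-term animal cancer tests in more than one sex, species or organ; inactive means no tumour finding and more than one negative test.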
Select the matching outcome among active, inactive

Worked examples follow.
> print(dat)
                                   molecule     label
1                                 CC(C)(C)O    active
2                               C=CC(=O)NCO    active
3  CC(=O)[O][Sn]([c]1ccccc1)([c]1ccccc1)[c]1ccccc1  inactive
4                         O=NN1CCC(=O)NC1=O    active

How did this test come out for Nc1nc(N)c2nc(-c3ccccc3)c(N)nc2n1 ?
active

Similarly, COC(=O)C1=C(C)NC(C)=C(C(=O)OCC(C)(C)CN(C)Cc2ccccc2)C1c1cc([N+](=O)[O-])ccc1F (stereo not drawn) ?
inactive

Similarly, C[C@]12CC[C@H]3C(=CCc4cc(OS(=O)(=O)O)ccc43)[C@@H]1CCC2=O ?
inactive

Similarly, CC(=O)NNC(=O)c1ccncc1 ?
active

Similarly, FCCl ?
active

Similarly, CC(=O)Oc1ccccc1C(=O)O ?
inactive

The measurements presented in this section are drawn from PubChem BioAssay AID1205.
